# reported activity change; entries follow
Protocol Summary: growth inhibition of wild-type GFP E. coli, dose response, h38 mutant RFP, cherry-pick (AID 977622)
Condition Notes: 24 h; E. coli mixed culture, total growth OD600 at 50 uM, at 50 µM
The whole screen tested about 1,900 compounds, of which fewer than 10 were called active. About 39% were inconclusive and are not listed. Not all results are given here.
Property Name: activity change

1. CCOc1ccc(C(C)=O)cc1CN1C(=O)NC2(CCCCCCC2)C1=O : -23.9%
2. CCN(CC)CCNC(=O)c1cc2cc3ccc(OC)cc3nc2o1 : -17.2%
3. CC1(CCC(=O)N2CCCC(N3CCN(c4ccc(F)cc4)CC3)C2)CC1 (centres undefined) : -2.02%
4. CN(CC(=O)Nc1cccc(F)c1)C(=O)Cn1c(=O)oc2ccccc21 : 2.16%
5. Cc1cccc(-c2ccc([C@H]3[C@@H](CO)N4CCCCN(S(=O)(=O)c5ccccc5C)C[C@@H]34)cc2)c1 : -22.4%
6. CSc1ccccc1C(=O)NCCc1ccc(S(=O)(=O)N2CCCCC2)cc1 : -6.73%
7. COCCn1c(SCc2nc3ccccc3s2)nc2ccccc21 : 15.3%
8. COC(=O)c1cc2c(c3c4cc(F)ccc4n(S(=O)(=O)c4cccc(C)c4)c13)C(=O)N(Cc1ccco1)C2 : -11.5%
9. C[C@@H]1CCCCO[C@H](CN(C)C)[C@H](C)CN([C@@H](C)CO)C(=O)c2cc(NC(=O)Nc3cccc4ccccc34)ccc2O1 : 4.86%

---

Quick reference: activity change of the listed items.
Test system: E. coli h38 humanized mutant ribosome RFP fluorescence, mixed culture, 24 h
Protocol Summary: growth inhibition of wild-type GFP E. coli, dose response, h38 mutant RFP, cherry-pick (AID 977622)
Condition Notes: h38 mutant RFP at 50 uM; at 50 µM
Out of some 1,900 compounds screened, fewer than 10 were called active. Another 39% or so got no clear call; they are omitted. Not all results are given here.
Property Name: activity change (%)

1. Cc1cccc(OCCC(=O)N(C)CC(=O)Nc2cccc3ccccc23)c1 : 27.9
2. CCNC(=O)C1(C)CCCN(Cc2cccc3ccccc23)C1 (stereo not given) : 69.8
3. O=C(c1cc(COc2ccc(F)cc2F)on1)N1CCCC(c2ccccc2)C1 (stereo not given) : -5.01
4. COc1ccccc1NC(=O)CSc1ncc(CO)n1Cc1ccc(F)cc1 : -17.1
5. O=C(Nc1cccc(S(=O)(=O)c2cccc(NC(=O)C3CC3)c2)c1)C1CC1 : 4.96
6. C[C@@H]1CN([C@@H](C)CO)C(=O)CCCn2nncc2CO[C@H]1CN(C)C(=O)Nc1cccc(C(F)(F)F)c1 : -7.01
7. CCCCc1n(CC(=O)c2ccc(Cl)cc2)c2ccccc2[n+]1C : 5.85
8. COc1cc(C#N)ccc1OCC(=O)Nc1cccc(S(=O)(=O)N2CCCC2)c1 : -20.8
9. CCc1ccc(CN2CCCC(CNS(=O)(=O)c3ccc(OC)cc3)C2)cc1 (stereo not given) : 9.56
10. Cc1ccc(NC(=O)c2ccc3c(c2)OCO3)cc1S(=O)(=O)N1CCOCC1 : -6.07

---

Protocol Summary: growth inhibition of wild-type GFP E. coli, dose response, h38 mutant RFP, cherry-pick (AID 977622)
Condition Notes: 24 h
Screen size: about 1,900 compounds; fewer than 10 were called active. Another 39% or so got no clear call; they are omitted. Not all results are given here.
Property Name: outcome

1) Cc1onc(-c2ccccc2Cl)c1C(=O)Nc1ccc(Cl)cn1 : inactive
2) CC[n+]1c(C)cc2c(sc3ccccc32)c1C : inactive
3) COc1cccc(C(=O)Nc2nnc(S(=O)(=O)N(C)Cc3ccccc3)s2)c1 : inactive
4) OC(COc1ccc(Cl)cc1)CN1CCN(c2ccccn2)CC1 (stereo unspecified) : inactive
5) COc1ccc(C)c2sc(N(CCN(C)C)C(=O)c3ccc(S(=O)(=O)N(C)c4ccccc4)cc3)nc12 : inactive
6) Cc1ccccc1CSCC(=O)Nc1ccccc1F : inactive
7) O=C(Cc1ccc(Cl)cc1)c1ccc(O)cc1 : inactive
8) COc1ccc(C#Cc2ccc([C@H]3[C@@H](CO)N4CCCCN(C(=O)Nc5cccc(F)c5)C[C@H]34)cc2)cc1 : inactive
9) Fc1ccc(-c2nc3c(Cl)cc(C(F)(F)F)cn3c2Cc2ccsc2)cc1 : inactive
10) CCCc1nc2ccc(Br)cn2c1Cc1cccc(Cl)c1 : inactive
11) COc1ccc(CN2CCC3CC2c2cc(Cl)ccc23)cc1 (stereo unspecified) : inactive

---

Protocol Summary: growth inhibition of wild-type GFP E. coli, dose response, h38 mutant RFP, cherry-pick (AID 977622)
Condition Notes: 24 h; E. coli mixed culture, total growth OD600 at 50 uM, at 50 µM
The campaign covered roughly 1,900 compounds. Fewer than 10 were called active. About 39% were inconclusive and are not listed. A selection follows.
Quick list: activity change per entry.
Property Name: activity change (%)

1. COc1ccccc1Cc1c(-c2ccc(F)cc2)nc2ccc(Br)cn12 : -10.3
2. Cc1ccc(NC(=O)CN(C)S(=O)(=O)c2cccc3cccnc23)cc1F : -37.4
3. COC(=O)CN1C(=S)N(c2ccc(F)cc2)C(=O)C1CC(=O)Nc1ccc(F)cc1 (stereo not given) : -1.47
4. Fc1ccc(-c2nc3c(Cl)cc(C(F)(F)F)cn3c2Cc2ccsc2)cc1 : -5.9
5. O=C(Nc1cccc(F)c1)N1C[C@@H]2[C@H](c3ccccc31)[C@H](CO)N2C(=O)Cc1ccccn1 : 4.66

---

// reported activity change per item
Tested on: E. coli h38 humanized mutant ribosome RFP fluorescence, mixed culture, 24 h
Protocol Summary: growth inhibition of wild-type GFP E. coli, dose response, h38 mutant RFP, cherry-pick (AID 977622)
Condition Notes: h38 mutant RFP at 50 uM; at 50 µM
Out of some 1,900 compounds screened, fewer than 10 were called active. Roughly 39% stayed inconclusive and do not appear here. These entries were drawn from the full list.
Property Name: activity change (%)

1. O=C(O)CC(CC(=O)Nc1ccc2ccccc2n1)c1ccccc1 (stereo unspecified) : 7.39
2. C[C@@H]1CCCCO[C@H](CN(C)C)[C@H](C)CN([C@@H](C)CO)C(=O)c2cc(NC(=O)Nc3cccc4ccccc34)ccc2O1 : 1.63
3. CC[n+]1c(C)cc2c(sc3ccccc32)c1C : -7
4. CC1(CCC(=O)N2CCCC(N3CCN(c4ccc(F)cc4)CC3)C2)CC1 (stereo unspecified) : 22.3
5. C=C1c2cc3c(cc2NC(=S)N1Cc1ccccc1)OCO3 : -23.6
6. CC(CCc1ccccc1)NC(=O)CNC(=O)COc1ccccc1 (stereo unspecified) : 9.58
7. C=CCNc1ccc2c(c1)OC[C@H](CC(C)C)NS2(=O)=O : -12.1
8. COc1ccccc1NC(=O)COC(=O)Cc1c[nH]c2ccccc12 : -34.7
9. CCOC(=O)Cc1csc(SCC(=O)Nc2cc(C)ccc2OC)n1 : 38.6
10. CCOC(=O)c1cccc(OC(=O)CCNC(=O)c2ccc(Cl)cc2)c1 : -3.29
11. O=C(Nc1ccc(C(=O)Nc2ccccc2Cl)cc1)c1cccnc1 : -26
12. O=S(=O)(NOCc1ccc(Cl)cc1)c1ccc(Cl)cc1 : -52
13. Fc1ccc(-c2nc3c(Cl)cc(C(F)(F)F)cn3c2Cc2ccsc2)cc1 : 5.92
14. COc1ccccc1NC(=O)CSc1nccn1Cc1ccc(F)cc1 : -43.9
15. Cc1ccc2nc(-c3ccc(Cl)cc3)c(Cc3ccccc3C(F)(F)F)n2c1 : 37.7
16. O=C(c1ccccc1)C1Oc2ccccc2C2CC(c3cccs3)=NN12 (stereo unspecified) : 46.5
17. O=c1c2ccccc2cnn1Cc1n[nH]c(=S)n1C1CC2CCC1C2 (stereo unspecified) : -28.9
18. CC(NC(=O)c1ccc(CS(=O)(=O)c2ccc(Cl)cc2)o1)c1ccc2c(c1)OCCO2 (stereo unspecified) : 17.5
19. NS(=O)(=O)c1ccc(NC(=O)c2cc(Cl)sc2Cl)cc1 : 13.3
20. O=C1c2ccccc2CSc2c(O)cccc21 : -51.2
21. CN(CC(=O)Nc1cccc(F)c1)C(=O)Cn1c(=O)oc2ccccc21 : 60
22. Cc1noc(C)c1NC(=O)Nc1ccc2c(c1)C(=O)N([C@H](C)CO)C[C@@H](C)[C@@H](CN(C)C(=O)Nc1ccc3c(c1)OCO3)OCCCC[C@@H](C)O2 : -16.3
23. CC(=O)Nc1cccc(OCc2ccc([N+](=O)[O-])cc2)c1 : -23.9
24. CC(NC(=O)c1c(N)[nH]c(C(=O)c2ccccc2)c1-c1ccccc1Br)c1cccc2ccccc12 (stereo unspecified) : 41.2
25. COc1cc2ccccc2cc1C(=O)NCC(c1cccs1)N(C)C (stereo unspecified) : 10.8
26. Nc1ccc2nc(-c3ccc(Cl)cc3)[nH]c2c1 : -11.3
27. COc1ccc(C)c2sc(N(CCN(C)C)C(=O)c3ccc(S(=O)(=O)N(C)c4ccccc4)cc3)nc12 : 11
28. COc1ccc(NS(=O)(=O)c2cc(NC(=O)CNC(=O)c3cccc(OC)c3)ccc2C)cc1 : -12.3
29. COCCCNC(=O)c1ccc(-c2nc3ccccc3nc2-c2ccccc2)cc1 : 8.8
30. CCC(C)c1ccccc1NC(=O)c1cccc(-n2cnnn2)c1 (stereo unspecified) : -4.87
31. O=C(NCCCn1ccnc1)c1sc2cc([N+](=O)[O-])ccc2c1Cl : -1.75
32. CCCc1nc2ccc(Br)cn2c1Cc1cccc(Cl)c1 : 4.58
33. Cc1noc(C)c1NC(=O)Nc1ccc2c(c1)C(=O)N([C@@H](C)CO)C[C@@H](C)[C@H](CN(C)C(=O)Nc1ccc3c(c1)OCO3)OCCCC[C@H](C)O2 : -3.87
34. Cc1noc(C)c1NC(=O)Nc1ccc2c(c1)C(=O)N([C@H](C)CO)C[C@H](C)[C@H](CN(C)C(=O)Nc1ccc3c(c1)OCO3)OCCCC[C@@H](C)O2 : -22.3
35. N#Cc1ccc(-c2ccc(C3[C@H]4CNC[C@@H]3N4S(=O)(=O)c3ccc(-c4ccccc4)cc3)cc2)cc1 (stereo partly specified) : 244
36. CCc1ccc(NC(=O)CCc2c(C)nn(-c3ccc(N4CCCCC4)nn3)c2C)cc1 : -12.8
37. CCC(=O)Nc1nc2c(OC)ccc(OC)c2s1 : -14.1
38. Cc1ccc2oc(=O)n(CCCOc3ccccc3C)c2c1 : -0.57
39. O=C(c1ccc2c3c(cccc13)CC2)N1CCN(c2ncccn2)CC1 : -11.5
40. CCn1nc(C)cc1C(=O)N1CCCC(C(=O)c2ccc3ccccc3c2)C1 (stereo unspecified) : 3.47
41. C[C@H]1CN([C@@H](C)CO)C(=O)c2c(c3ccccc3n2C)-c2ccccc2CO[C@@H]1CN(C)Cc1ccncc1 : -32.1

Reference for the values: PubChem BioAssay AID977622
